Where do these numbers come from? They come from patent US20240301052A1.

This listing pairs binders with measured EC50.
# System Tested: T1, human SLC34A2 (human, UniProt O95436 1-690)
# T1 construct: whole, on cells; also called human solute carrier 34 A2; NaPi2b
# T1 sequence (looked up): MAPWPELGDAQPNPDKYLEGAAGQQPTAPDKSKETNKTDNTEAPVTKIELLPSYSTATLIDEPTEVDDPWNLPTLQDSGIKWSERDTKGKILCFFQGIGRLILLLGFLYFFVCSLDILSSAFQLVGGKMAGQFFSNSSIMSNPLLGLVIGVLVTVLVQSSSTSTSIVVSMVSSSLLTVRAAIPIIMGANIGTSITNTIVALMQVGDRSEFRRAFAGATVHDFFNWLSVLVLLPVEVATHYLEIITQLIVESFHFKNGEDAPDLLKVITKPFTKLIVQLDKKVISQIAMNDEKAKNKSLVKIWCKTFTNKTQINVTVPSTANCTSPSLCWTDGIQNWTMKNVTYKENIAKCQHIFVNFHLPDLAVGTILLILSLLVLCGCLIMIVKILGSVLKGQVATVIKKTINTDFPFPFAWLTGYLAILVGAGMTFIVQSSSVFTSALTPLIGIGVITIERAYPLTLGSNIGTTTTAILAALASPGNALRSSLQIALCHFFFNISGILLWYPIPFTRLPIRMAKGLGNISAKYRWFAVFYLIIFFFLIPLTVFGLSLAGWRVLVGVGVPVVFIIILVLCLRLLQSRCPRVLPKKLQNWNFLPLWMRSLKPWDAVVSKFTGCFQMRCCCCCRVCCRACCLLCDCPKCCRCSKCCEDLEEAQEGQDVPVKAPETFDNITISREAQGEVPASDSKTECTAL
# Experiment Notes: FACS, RMG-1 cells
Measure: EC50 (nM)

binder="62G10E4G8.p3.z15 hIgG1 (antibody, V domains shown, humanized hIgG1) VH: QVQLVQSGAEVVKPGASVKMSCKASGYTFPSYITHWVKQAPGQGLEWIGAIYPGNADTSYIQKFKGRATLTADKSTSTAYMELSSLRSEDTAVYYCARGTYGTSAWFTYWGQGTLVTVSS VL: EIVLTQSPATLSVSPGERATLSCRARQNIGNNLYWYQQKPGQSPRLLIKYASQSISGIPSRFSGSGSGTDFTLTISSLQSEDFAVYFCQQSFSWPLTFGQGTKLEIK" value=3.69
binder="63A11D5B4.p1.z15 hIgG1 (antibody, V domains shown, humanized hIgG1) VH: QVQLQQSGAEVVKPGASVKMSCKTSGYTFITYNMHWVKQAPGQGREWIGAIYPGSGDTSYNQKFKGRATLTADKSTSTAYMELSSLRSEDTAVYYCSISTIITTGAVDYWGQGTSVTVSS VL: DIQMTQSPSSLSTSVGDRVTITCKASQDVGTAVAWYQQKPGQSPKLLIYWTSTRHTGVPDRFSGSGSGTDFTLIIRSLQPEDVATYFCQQYSRIPLTFGGGTKVEIK" value=40.6
binder="30H9B8F9.p1.z13 hIgG1 (antibody, V domains shown, humanized hIgG1) VH: QVQLVQSGAEVVKPGASVKMSCKTSGYTFTTNNMHWVKQAPGQGLEWIGAIYPGSGATAYNQKFKGRATLTADKSTSTAYMELSSLRSEATAVYYCARGMYGHGAMDYWGQGTSVTVSS VL: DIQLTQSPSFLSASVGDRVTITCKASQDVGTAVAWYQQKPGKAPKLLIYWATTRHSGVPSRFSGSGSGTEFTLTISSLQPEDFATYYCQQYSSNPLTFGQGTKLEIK" value=0.73
